All values here come from patent US20170022201A1.

Readings of IC50 for the listed compounds
measured.target: eEF2K (Homo sapiens, UniProt O00418)
Construct: in the immortalized epithelial breast cell lines, MCF10A; host or cells: MCF10A immortalized breast epithelial cells
assay: EF2K cell-based assay (P-EF2 AlphaLISA, 2-deoxyglucose stimulated MCF10A cells)
condition: 2.5 mM 2-deoxyglucose 4 h, phosphorylation of EF2 at Thr 56, pIC50 = -log IC50 (M), read-out: eEF2K_C_PThr56 pIC50 (converted)

Solved entries (count: 3):
CN1CCCNc2ccc(cn2)-c2ccnc(c2)Nc2cccc(c2)CN2CCN(CC2)CC1=O [Compound 69] = > 3.02e-05 M
CC1CN2CC(=O)NCCCNc3ncc(cn3)-c3ccnc(c3)Nc3cccc(c3)CN1C(C)C2 (stereo not shown) [Compound 34] = ~2.63e-06 M
COCCCN1CCCN(C)C(=O)CN2CCN(CC2)Cc2cccc(c2)Nc2cc(ccn2)-c2cnc1nc2 [Compound 14] = > 3.02e-05 M

Q: May I ask what IC50 has been recorded for O=C1CN2CCN(CC2)Cc2cccc(c2)Nc2cc(ccn2)-c2cnc(nc2)C2CCCN2CCN1 (single isomer, unassigned) [Compound 139] ?
Result: > 1e-05 M

Q: Also, CNC(=O)C1CCNC(=O)CN2CCN(CC2)Cc2cccc(c2)Nc2cc(ccn2)-c2cnc(nc2)N1 (single isomer, unassigned) [Compound 124] please.
Result: ~2.51e-05 M

Q: Also, O=C1NCCCNc2ncc(cn2)-c2ccnc(c2)Nc2cccc(c2)OC2CCN(CC2)C12CC2 [Compound 95] please.
Result: ~6.46e-07 M

Q: Also, CC1CN2CCN1Cc1cccc(c1)Nc1cc(ccn1)-c1ccc(nc1)NCCCNC(=O)C2 (stereo not shown) [Compound 71] please.
Result: 2.45e-05 M

Q: Also, O=C1NCCCNc2ncc(cn2)-c2ccnc(c2)Nc2cccc(c2F)OC2CCN(CC2)C12CC2 [Compound 89] please.
Result: 3.24e-07 M

Q: Also, N#CC1CC2CCNC(=O)CN3CCN(CC3)Cc3cccc(c3)Nc3cc(ccn3)-c3cnc(nc3)N2C1 (stereo not shown) [Compound 77] please.
Result: 3.8e-06 M

Q: Also, O=C1CN2CCC(CC2)Oc2cccc(c2)Nc2cc(ccn2)-c2cnc(nc2)NCCCN1 [Compound 90] please.
Result: 5.25e-07 M

###

measured.target: PIK3C3 lipid kinase (Homo sapiens, UniProt Q8NEB9)
Sequence (Q8NEB9 whole entry): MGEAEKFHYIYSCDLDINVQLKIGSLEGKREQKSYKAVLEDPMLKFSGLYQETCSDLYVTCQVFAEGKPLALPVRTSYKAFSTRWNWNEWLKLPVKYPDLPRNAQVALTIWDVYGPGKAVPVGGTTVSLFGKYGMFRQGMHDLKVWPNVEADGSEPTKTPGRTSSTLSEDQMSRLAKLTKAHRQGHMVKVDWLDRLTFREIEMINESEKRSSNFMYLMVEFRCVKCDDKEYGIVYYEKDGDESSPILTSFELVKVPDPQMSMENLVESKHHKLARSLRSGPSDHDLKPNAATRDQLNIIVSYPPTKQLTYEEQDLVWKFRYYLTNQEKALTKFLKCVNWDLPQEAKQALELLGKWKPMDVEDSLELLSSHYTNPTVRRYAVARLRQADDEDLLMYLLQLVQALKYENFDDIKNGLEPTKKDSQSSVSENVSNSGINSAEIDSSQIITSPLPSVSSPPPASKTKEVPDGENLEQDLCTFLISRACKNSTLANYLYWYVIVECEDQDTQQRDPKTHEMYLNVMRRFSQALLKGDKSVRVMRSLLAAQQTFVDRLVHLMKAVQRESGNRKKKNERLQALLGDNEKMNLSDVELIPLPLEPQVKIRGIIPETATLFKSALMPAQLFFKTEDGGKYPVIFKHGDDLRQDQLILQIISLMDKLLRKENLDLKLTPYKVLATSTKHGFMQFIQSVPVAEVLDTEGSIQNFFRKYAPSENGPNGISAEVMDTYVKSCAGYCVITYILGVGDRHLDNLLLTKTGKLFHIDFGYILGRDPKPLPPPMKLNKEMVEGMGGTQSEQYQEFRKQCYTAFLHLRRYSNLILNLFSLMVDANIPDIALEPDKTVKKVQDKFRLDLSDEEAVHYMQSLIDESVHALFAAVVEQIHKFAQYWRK
assay: Biochemical Vps34 lipid kinase assay (ADP-Glo)
condition: 1 h, single dose 1 μM; residual activity compared to control (DMSO); 20 μM ATP; read-out: VPS34_1microM_%ofcntrl
Experimental: A non-radiometric kinase assay (ADP-Glo™ Assay, Promega, Madison, Wi, USA) was used for measuring the kinase activity of the PIK3C3 lipid kinase. All kinase assays were performed in 96-well half-area microtiter plates in a 25 μl reaction volume. […] The reaction cocktails were incubated at 30° C. for 60 minutes. […] Signal was determined with a microplate luminescence reader (Victor, Perkin Elmer). […]
value.kind: remaining activity at 1 µM (%)
# value in %; strip the unit string

Solved entries (count: 5):
CC1CN2CCN1Cc1cccc(c1)Nc1cc(ccn1)-c1ccc(nc1)NCCCNC(=O)C2 (stereo not drawn) [Compound 71] = 32.1
O=C1CN2CCN(CC2)Cc2cccc(c2)Nc2cc(ccn2)-c2cnc(nc2)CN(C(=O)C2CC2)CCN1 [Compound 131] = 56.2
O=C1CN2CCN(CC2)Cc2cccc(c2)Nc2cc(ccn2)-c2ccc(nn2)NCCCN1 [Compound 37] = 84.5
CNC(=O)C1CCNC(=O)CN2CCN(CC2)Cc2cccc(c2)Nc2cc(ccn2)-c2cnc(nc2)N1 (single isomer, unassigned) [Compound 124] = 65.5
CN1CCCNc2ncc(cn2)-c2ccnc(c2)Nc2cccc(c2)CN2CCN(CC2)CC1=O [Compound 13] = 34.9

Q: May I ask what remaining activity at 1 µM has been recorded for O=C1CN2CCN(CC2)Cc2cccc(c2)Nc2cc(ccn2)-c2cnc(nc2)CN(CC2CC2)CCN1 [Compound 128] ?
Result: 74.5

Q: Also, COCCCN1CCCN(C)C(=O)CN2CCN(CC2)Cc2cccc(c2)Nc2cc(ccn2)-c2cnc1nc2 [Compound 14] please.
Result: 50.4

Q: Also, COCC1C(=O)NCCCNc2ncc(cn2)-c2ccnc(c2)Nc2cccc(c2)CN2CCN1CC2 (single isomer, unassigned) [Compound 5] please.
Result: 22.4

Q: Also, O=C1CN2CCN(CC2)Cc2cccc(c2)Nc2cc(ccn2)-c2ccc(nc2)CN(CC2CC2)CCN1 [Compound 146] please.
Result: 54.6

###

Readings of IC50 for the listed molecules
measured.target: EF2K (Homo sapiens)
Construct: host or cells: LN-229 glioblastoma cell lysate
assay: Biochemical EF2K lysate-based kinase assay (AlphaLISA p-eEF2 Thr56)
condition: LN-229 cell lysates, 10 mM ATP, pH 6.6; pIC50 = -log IC50 (M); read-out: eEF2K_C_alphalisa pIC50 (converted)
Source text: LN-229 cells were purchased from ATCC (CRL-2611); these are glioblastoma cells. Cell lysates from LN229 were used in this kinase assay to provide both the kinase and the substrate (EF2). The AlphaLISA p-eEF2 (Thr56) detection assay was developed using a sandwich assay format with two specific antibodies recognizing different epitopes of the target, including one antibody against the phosphorylation site of interest. […]

CN1CCN(CCCO)c2ncc(cn2)-c2ccnc(c2)Nc2cccc(c2)CN2CCN(CC2)CC1=O [Compound 17] = > 3.02e-05 M

Q: May I ask what IC50 has been recorded for CN1c2cccc(c2)Nc2cc(ccn2)-c2cnc(nc2)NCCCNC(=O)C2(CC2)N2CCC1CC2 [Compound 102] ?
Result: 8.13e-08 M

Q: Also, CN1CCCN(CCCO)c2ncc(cn2)-c2ccnc(c2)Nc2cccc(c2)CN2CCN(CC2)CC1=O [Compound 16] please.
Result: > 3.02e-05 M

###

measured.target: PIK3C3 lipid kinase (Homo sapiens, UniProt Q8NEB9)
assay: Biochemical Vps34 lipid kinase assay (ADP-Glo)
condition: serial dilution 10 μM to 0.3 nM; 20 μM ATP; pIC50 = -log IC50 (M)
Readings of IC50 for the listed molecules

Solved entries (count: 3):
CC1c2cccc(c2)Nc2cc(ccn2)-c2cnc(nc2)N2CC(O)CC2CCNC(=O)C2(CC2)N2CCN1CC2 (single isomer, unassigned) [Compound 65] = 1.95e-07 M
O=C1CN2CCN(Cc3cccc(c3)Nc3cc(ccn3)-c3cnc(nc3)NCCCN1)CC21CC1 = > 1e-05 M
CC1c2cccc(c2)Nc2cc(ccn2)-c2cnc(nc2)N2CC(O)CC2CCNC(=O)C2(CC2)N2CCN1CC2 (single isomer, unassigned) [Compound 66] = 1.12e-06 M

Q: May I ask what IC50 has been recorded for NCCCOCC1CN2CCN1Cc1cccc(c1)Nc1cc(ccn1)-c1cnc(nc1)NCCCNC(=O)C2 (centres unmarked) [Compound 148] ?
Result: 9.33e-08 M

Q: Also, O=C1CN2CCN(Cc3cccc(c3)Nc3cc(ccn3)-c3cnc(nc3)NCCCN1)C(CO)C2 (single isomer, unassigned) [Compound 8] please.
Result: 1.66e-07 M

###

Readings of IC50 for the listed compounds
measured.target: eEF2K (Homo sapiens, UniProt O00418)
Construct: in the immortalized epithelial breast cell lines, MCF10A; host or cells: MCF10A immortalized breast epithelial cells
assay: EF2K cell-based assay (P-EF2 AlphaLISA, 2-deoxyglucose stimulated MCF10A cells)
condition: 2.5 mM 2-deoxyglucose 4 h, phosphorylation of EF2 at Thr 56, pIC50 = -log IC50 (M), read-out: eEF2K_C_PThr56 pIC50 (converted)

Solved entries (count: 5):
COCCN1CCNC(=O)CN2CCN(CC2)Cc2cccc(c2)Nc2cc(ccn2)-c2cnc(nc2)C1 = > 1e-05 M
CC1CN2CCN1Cc1cccc(c1)Nc1cc(ccn1)-c1cnc(nc1)NCCCNC(=O)C2 (stereo not shown) [Compound 40] = ~5.89e-06 M
CNC(=O)c1ccc2cc1CN1CCN(CC1)CC(=O)NCCCNc1ncc(cn1)-c1ccnc(c1)N2 = ~5.5e-06 M
O=C1CN2CC3CCC2CN3Cc2cccc(c2)Nc2cc(ccn2)-c2cnc(nc2)NCCCN1 (single isomer, unassigned) = > 1e-05 M
CN1CCN(CCCO)c2ncc(cn2)-c2ccnc(c2)Nc2cccc(c2)CN2CCN(CC2)CC1=O = > 3.02e-05 M

Q: May I ask what IC50 has been recorded for O=C1CN2CCN(CC2)Cc2cccc(c2)Nc2cc(ccn2)-c2ccc(nc2)CNCCN1 ?
Result: > 1e-05 M

Q: Also, O=C1CN2CCN(CC2)Cc2cccc(c2)Nc2cc(ccn2)-c2cnc(nc2)NC(CC2CC2)CCN1 (stereo not shown) please.
Result: > 1e-05 M

###

measured.target: EF2K (Homo sapiens, UniProt O00418)
Construct: host or cells: LN-229 glioblastoma cell lysate
Sequence (O00418 1-725): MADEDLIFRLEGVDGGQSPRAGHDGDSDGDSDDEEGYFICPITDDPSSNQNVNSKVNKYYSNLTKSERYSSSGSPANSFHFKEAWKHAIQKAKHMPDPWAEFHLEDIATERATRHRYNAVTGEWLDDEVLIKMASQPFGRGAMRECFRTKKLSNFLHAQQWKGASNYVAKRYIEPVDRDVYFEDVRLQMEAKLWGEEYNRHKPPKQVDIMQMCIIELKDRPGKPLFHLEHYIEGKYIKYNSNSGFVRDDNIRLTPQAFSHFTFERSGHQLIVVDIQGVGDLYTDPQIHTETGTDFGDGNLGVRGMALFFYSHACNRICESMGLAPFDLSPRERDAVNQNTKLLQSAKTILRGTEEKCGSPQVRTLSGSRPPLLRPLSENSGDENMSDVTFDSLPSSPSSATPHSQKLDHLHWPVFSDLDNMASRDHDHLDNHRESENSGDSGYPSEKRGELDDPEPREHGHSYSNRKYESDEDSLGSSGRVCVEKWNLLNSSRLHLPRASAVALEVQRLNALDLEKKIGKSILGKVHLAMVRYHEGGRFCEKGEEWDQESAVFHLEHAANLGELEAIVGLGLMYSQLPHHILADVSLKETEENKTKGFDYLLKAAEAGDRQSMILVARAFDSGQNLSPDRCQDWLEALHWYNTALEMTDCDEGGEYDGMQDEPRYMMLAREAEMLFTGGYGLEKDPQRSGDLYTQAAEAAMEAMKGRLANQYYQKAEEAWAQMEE
assay: Biochemical EF2K lysate-based kinase assay (AlphaLISA p-eEF2 Thr56)
condition: LN-229 cell lysates, 10 mM ATP, pH 6.6; pIC50 = -log IC50 (M); read-out: eEF2K_C_alphalisa pIC50 (converted)
value.kind: IC50

Solved entries (count: 6):
O=C1CN2CCN(CC2)Cc2cccc(c2)Nc2cc(ccn2)-c2cnc(nc2)NCCCN1 = ~2.19e-08 M
O=C1CN2C3CCC2CN(Cc2cccc(c2)Nc2cc(ccn2)-c2cnc(nc2)NCCCN1)C3 = 9.77e-08 M
O=C1CN2CCN(CC2)Cc2cccc(c2)Nc2cc(ccn2)-c2cnc(nc2)NC(CC2CC2)CCN1 (stereo not shown) = 5.75e-06 M
CC1c2cccc(c2)Nc2cc(ccn2)-c2cnc(nc2)N2CC(O)CC2CCNC(=O)C2(CC2)N2CCN1CC2 (single isomer, unassigned) [Compound 66] = 6.17e-08 M
O=C1CN2CCN(CC2)Cc2cccc(c2)Nc2cc(ccn2)-c2cnc(nc2)NC(C(=O)O)CCN1 (stereo not shown) [Compound 117] = 4.57e-07 M
CC1NCCNC(=O)CN2CCN(CC2)Cc2cccc(c2)Nc2cc(ccn2)-c2cnc1nc2 (stereo not shown) [Compound 133] = > 3.02e-05 M

Q: May I ask what IC50 has been recorded for CCCN1CCNC(=O)CN2CCN(CC2)Cc2cccc(c2)Nc2cc(ccn2)-c2ccc(nc2)C1 ?
Result: 3.98e-07 M

Q: Also, CN1c2cccc(c2F)Nc2cc(ccn2)-c2cnc(nc2)NCCCNC(=O)C2(CC2)N2CCC1CC2 please.
Result: 1.91e-07 M

Q: Also, CC(=O)NCCCCC1C(=O)NCCCNc2ncc(cn2)-c2ccnc(c2)Nc2cccc(c2)CN2CCN1CC2 (stereo not shown) please.
Result: 3.55e-07 M
